Ratio values by entry
methodDescription: Selectivity for HCV NS3 protease over human neutrophil elastase

C=CCNC(=O)C(=O)[C@@H]1CCCCCCCO[C@@H](C)[C@H](NC(=O)N[C@H](CN2C(=O)CC(C)(C)CC2=O)C(C)(C)C)C(=O)N2C[C@H]3[C@@H]([C@H]2C(=O)N1)C3(C)C | 1400
C=CCNC(=O)C(=O)[C@@H]1CCCCCCCO[C@@H](C)[C@H](NC(=O)N[C@H](CN2C(=O)C3CCC(C3)C2=O)C(C)(C)C)C(=O)N2C[C@H]3[C@@H]([C@H]2C(=O)N1)C3(C)C | 2800

Here is another molecule to look at.
Entry `C=CCNC(=O)C(=O)[C@@H]1CCCCCCCOC[C@H](NC(=O)N[C@H](CN2CCC(C)(C)CC2=O)C(C)(C)C)C(=O)N2C[C@H]3[C@@H]([C@H]2C(=O)N1)C3(C)C` : reported Ratio = ?
140
